# Target entity: T1, EVA-P974 (UniProt A0A023FDY8 22-118, biotin on the Avi-tag (Bir-A ligase))
# T1 sequence (looked up): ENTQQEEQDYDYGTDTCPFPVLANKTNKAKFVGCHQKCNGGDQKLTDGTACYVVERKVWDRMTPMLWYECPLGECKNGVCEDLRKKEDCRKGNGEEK
# Procedure text: SPR
pKd: −log10 of the molar value.
Reported metric: pKd

Binder	pKd
CCL3 (ligand, human, UniProt P10147 24-92, looked up) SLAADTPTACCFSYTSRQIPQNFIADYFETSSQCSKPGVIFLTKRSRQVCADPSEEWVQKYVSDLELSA	9.22
CCL4 (ligand, human, UniProt P13236 24-92, looked up) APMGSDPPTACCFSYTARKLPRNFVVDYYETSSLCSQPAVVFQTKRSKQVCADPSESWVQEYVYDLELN	8.74
CCL14 (ligand, human, UniProt Q16627 20-93, looked up) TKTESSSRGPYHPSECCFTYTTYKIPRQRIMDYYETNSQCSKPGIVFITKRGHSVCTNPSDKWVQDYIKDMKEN	8.74

P: CCL22 (ligand, human, UniProt O00626 25-93, looked up) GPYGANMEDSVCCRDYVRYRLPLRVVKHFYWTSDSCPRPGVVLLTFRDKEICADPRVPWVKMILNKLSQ
Q: CCL18 (ligand, human, UniProt P55774 21-89, looked up) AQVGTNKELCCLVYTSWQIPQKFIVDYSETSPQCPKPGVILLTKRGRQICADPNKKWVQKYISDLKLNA
Query: Given P and Q , report the one with the higher recorded pKd. Bench note: the answer is the label of the chosen record.
Reply: Q
(Q: 9.22, P: 8.74)
